measurement_notes: DNDI: Cytotoxicity against L929 mouse fibroblasts, 72 hour.
Format: toxicity, cell-based
condition_parameters: mouse, L929 mouse fibroblasts
value_kind: IC50 at 72 h

INSERT INTO assay_data (compound, result) VALUES
  ('Cc1cc(NCCCN(C)C)n2nc(-c3cccc(F)c3)cc2n1', '> 10 µg/mL'),
  ('Cc1ccc(CNC(CC(C)C)c2nc(Cc3ccccc3)c(N3CCOCC3)o2)cc1 (stereo not given)', '> 10 µg/mL'),
  ('COC(=O)c1sccc1NC(N)=O', '> 10 µg/mL'),
  ('O/N=C(\NC1CCCCC1)c1ccccc1', '> 10 µg/mL'),
  ('COc1ccc(CNC(CCc2ccccc2)c2nc(Cc3ccccc3)c(N3CCCCC3)o2)cc1OC (stereo not given)', '> 10 µg/mL'),
  ('CCCCCOc1ccc(-c2nc(CNC(C)CCCCC)co2)cc1 (stereo not given)', '< 3.13 µg/mL'),
  ('CCCCc1ccc(-c2nc(CN3CCN(c4ccccc4)CC3)co2)cc1', '> 10 µg/mL'),
  ('CN(C)CC(C)(C)CNc1cc(-c2ccccc2)nc2cc(-c3cccc(F)c3)nn12', '> 10 µg/mL'),
  ('COc1ccc(CNC(CC(C)C)c2nc(Cc3ccccc3)c(N3CCOCC3)o2)cc1 (stereo not given)', '> 10 µg/mL'),
  ('COc1ccc(/C(=N/O)Nc2cccc(C)c2)cc1', '> 10 µg/mL'),
  ('COc1ccccc1CNC(CCc1ccccc1)c1nc(-c2ccccc2)c(N2CCOCC2)o1 (stereo not given)', '> 10 µg/mL'),
  ('CCCCC[C@@H](C)N(Cc1coc(-c2ccc(Cl)cc2)n1)Cc1coc(-c2ccc(Cl)cc2)n1', '> 50 µg/mL'),
  ('CCCCOc1ccc(-c2nc(CNC3CC(C)CC(C)(C)C3)co2)cc1 (stereo not given)', '< 3.13 µg/mL'),
  ('CCOc1ccc(-c2nc(CNC3CCCCCC3)co2)cc1', '< 3.13 µg/mL'),
  ('Cc1ccc(CNC(c2nc(-c3ccccc3)c(N3CCOCC3)o2)C2CC2)cc1 (stereo not given)', '> 10 µg/mL');
